ASSAY_TARGET: 5-HT3 receptor (Rattus norvegicus, UniProt P35563)
Sequence (P35563 24-483): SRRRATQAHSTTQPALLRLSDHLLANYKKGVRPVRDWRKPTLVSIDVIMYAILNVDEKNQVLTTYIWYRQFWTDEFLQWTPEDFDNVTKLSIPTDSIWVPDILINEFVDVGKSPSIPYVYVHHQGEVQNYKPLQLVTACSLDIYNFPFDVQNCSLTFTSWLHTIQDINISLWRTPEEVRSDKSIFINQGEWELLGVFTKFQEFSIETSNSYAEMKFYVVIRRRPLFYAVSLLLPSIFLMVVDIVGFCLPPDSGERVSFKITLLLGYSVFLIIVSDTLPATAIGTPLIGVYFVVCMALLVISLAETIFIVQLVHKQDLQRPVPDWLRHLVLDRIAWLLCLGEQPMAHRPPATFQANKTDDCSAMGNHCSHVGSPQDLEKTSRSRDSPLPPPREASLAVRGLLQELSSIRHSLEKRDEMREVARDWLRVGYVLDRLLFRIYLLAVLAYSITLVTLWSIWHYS
EXPERIMENTAL_PROTOCOL: 5-HT3 receptor binding experiment (3H-quipazine binding assay, rat cerebral cortical membrane fraction)
CONDITION_CONTEXT: read-out: Binding inhibitory rate
Output y for inhibition at 0.01 µM not less than 50%; output n otherwise.

>  <COMPOUND>
Cc1cccc2c(C(=O)O[C@H]3C[C@H]4CC[C@@H](C3)N4C)cnn12

>  <GROUP_LABEL>
y

$$$$

Does the compound Cc1ccn2ncc(C(=O)NC3CN4CCC3CC4)c2c1 (stereo not drawn) have recorded inhibition at 0.01 µM that is 50% or more?
n

State whether the measured inhibition at 0.01 µM reaches 50%, counting equality as reaching it, for CN1[C@@H]2CC[C@H]1C[C@@H](OC(=O)c1cnn3ccccc13)C2
n

Given Cc1cccc2c(C(=O)NC3CN4CCC3CC4)cnn12 (stereo not drawn) , state whether its inhibition at 0.01 µM is at least 50%.
y
